- System Tested: HIV-integrase (Human immunodeficiency virus type 1 group M subtype B)
- Construct: Recombinant integrase (0.26 ng) was incubated with the beads
- Assay Name: HIV-Integrase Inhibition Activity (SPA bead integration assay with P33 labeled target DNA)
- Format: biochemical
- Test Conditions: recombinant integrase, class symbols; read-out: in vitro activity
pIC50: −log10 of the molar value.
Field: pIC50. Provide a value for each of the compounds that follow.

Data point: Cc1cccc(S(=O)(=O)NC23CCC(CC2)Cn2c3nc(C(=O)NCc3ccc(F)cc3)c(O)c2=O)c1 [Example 391] ; pIC50 = > 8.00

Reported pIC50 ( CCOC(=O)N1CCCC1C(=O)NC12CCC(CC1)Cn1c2nc(C(=O)NCc2ccc(F)cc2)c(O)c1=O (stereo not drawn) [Example 397] ) = > 8.00

Lab note: measured pIC50 of CN(C)C(=O)C(=O)NC12CCC(CC1)Cn1c2nc(C(=O)NCc2ccncc2)c(O)c1=O [Example 365] was < 7.00

The compound listed as O=C(NC12CCC(CC1)Cn1c2nc(C(=O)NCc2ccc(F)cc2)c(O)c1=O)C(=O)N1CCN(c2ccccn2)CC1 [Example 78] has a reported pIC50 of > 8.00

Recorded result, CN1CCN(c2cccc(CNC(=O)c3nc4n(c(=O)c3O)CC3CCC4(NC(=O)C(=O)N(C)C)CC3)c2)CC1 [Example 127] , pIC50: 7.00 to 8.00

pIC50 in this record for COC(=O)c1sccc1S(=O)(=O)N1CCN(C(=O)C(=O)NC23CCC(CC2)Cn2c3nc(C(=O)NCc3ccc(F)cc3)c(O)c2=O)CC1 [Example 147] : > 8.00

The compound listed as Cc1ccc(CNC(=O)c2nc3n(c(=O)c2O)CC2CCC3(NC(=O)C(=O)N(C)C)CC2)o1 [Example 234] shows pIC50 equal to > 8.00

What the record says about Cc1cc(CNC(=O)c2nc3n(c(=O)c2O)CC2CCC3(NC(=O)C(C)(C)n3cc(C(=O)N4CCN(C)CC4)nn3)CC2)ccc1F [Example 288] : pIC50 is > 8.00

Looking up CN(C)C(=O)C(=O)NC12CCC(C)(CC1)Cn1c2nc(C(=O)NCc2ccc(F)cc2)c(O)c1=O [Example 180] , I see its pIC50 listed as > 8.00

Form field pIC50, entry O=C(NCc1ccc(F)cc1)c1nc2n(c(=O)c1O)CC1CCC2(NC(=O)C2CCCN2S(=O)(=O)c2ncn[nH]2)CC1 (stereo not drawn) [Example 409] : > 8.00

Lab note: COCCN(C)C(=O)C(=O)N(C)C12CCC(CC1)Cn1c2nc(C(=O)NCc2ccc(F)c(C)c2)c(O)c1=O [Example 168] gave pIC50 of > 8.00

The measured pIC50 associated with CC(=O)NC12CCC(Cn3c1nc(C(=O)NCc1ccc(F)cc1)c(O)c3=O)OC2 (stereo not drawn) [Example 221] reads > 8.00

Noted for Cc1ccccc1CNC(=O)c1nc2n(c(=O)c1O)CC1CCC2(NC(=O)C(=O)N(C)C)CC1 [Example 370] : its pIC50 reads > 8.00

The measured pIC50 associated with CN(C)C(=O)C(=O)NC12CCC(CC1)Cn1c2nc(C(=O)NCC2CCCO2)c(O)c1=O (stereo not drawn) [Example 338] reads < 7.00

Entry O=C(NC12COC(CCn3c1nc(C(=O)NCc1ccc(F)cc1)c(O)c3=O)C2)OCc1ccccc1 (stereo not drawn) [Example 217] , pIC50 reported as > 8.00
